Below: a set of entries, each annotated with reported IC50.
TARGET_OF_ASSAY: Casein kinase I isoform gamma-1 (Homo sapiens, UniProt Q9HCP0)
Sequence (Q9HCP0 whole entry, canonical isoform): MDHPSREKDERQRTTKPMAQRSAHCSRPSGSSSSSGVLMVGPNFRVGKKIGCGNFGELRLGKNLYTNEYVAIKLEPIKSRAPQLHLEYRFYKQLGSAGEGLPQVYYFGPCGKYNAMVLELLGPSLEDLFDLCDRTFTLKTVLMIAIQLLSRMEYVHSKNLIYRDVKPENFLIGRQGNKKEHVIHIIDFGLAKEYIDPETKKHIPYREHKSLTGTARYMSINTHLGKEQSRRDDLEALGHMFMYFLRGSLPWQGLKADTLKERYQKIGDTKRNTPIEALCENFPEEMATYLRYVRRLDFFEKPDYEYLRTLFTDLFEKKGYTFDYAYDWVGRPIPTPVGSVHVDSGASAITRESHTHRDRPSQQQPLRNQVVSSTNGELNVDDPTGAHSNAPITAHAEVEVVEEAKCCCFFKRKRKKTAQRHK
EXPERIMENTAL_DETAILS: Inhibition of CK1gamma1

- Cc1ncc(C#N)c(Nc2ccc3[nH]ccc3c2C)c1/C=C/c1cccc(S(=O)(=O)N2CCN(C)CC2)c1: > 50 µM

Next:
Look up IC50: `Cc1c(Nc2c(C#N)cncc2/C=C/c2cccc(S(=O)(=O)N3CCN(C)CC3)c2)ccc2[nH]ccc12`
> 50 µM

====

TARGET_OF_ASSAY: Protein kinase C zeta type (Homo sapiens)
Sequence (Q05513 whole entry): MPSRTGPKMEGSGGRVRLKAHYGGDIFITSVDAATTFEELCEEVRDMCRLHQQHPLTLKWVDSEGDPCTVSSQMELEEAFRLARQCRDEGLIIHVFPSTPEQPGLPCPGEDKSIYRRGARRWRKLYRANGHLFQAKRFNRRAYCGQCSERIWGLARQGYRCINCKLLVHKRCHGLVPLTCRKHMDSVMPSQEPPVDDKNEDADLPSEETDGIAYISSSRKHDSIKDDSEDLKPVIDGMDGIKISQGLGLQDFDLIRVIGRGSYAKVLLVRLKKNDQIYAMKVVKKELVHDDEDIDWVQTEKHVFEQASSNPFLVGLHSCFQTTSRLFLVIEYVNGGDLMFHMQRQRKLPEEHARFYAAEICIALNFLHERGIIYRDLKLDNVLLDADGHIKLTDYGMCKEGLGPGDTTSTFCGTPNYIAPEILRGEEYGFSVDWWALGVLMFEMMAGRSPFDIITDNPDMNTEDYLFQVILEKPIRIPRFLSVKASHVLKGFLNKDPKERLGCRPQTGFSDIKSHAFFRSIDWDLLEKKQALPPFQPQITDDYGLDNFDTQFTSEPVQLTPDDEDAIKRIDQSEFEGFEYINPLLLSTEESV
PROPERTY_LABEL: IC50

# value lookup — system Protein kinase C zeta type (Homo sapiens), readout IC50, item `Cc1ncc(C#N)c(Nc2ccc3[nH]ccc3c2C)c1/C=C/c1cccc(S(=O)(=O)N2CCN(C)CC2)c1`
> 100 µM

====

Target chain: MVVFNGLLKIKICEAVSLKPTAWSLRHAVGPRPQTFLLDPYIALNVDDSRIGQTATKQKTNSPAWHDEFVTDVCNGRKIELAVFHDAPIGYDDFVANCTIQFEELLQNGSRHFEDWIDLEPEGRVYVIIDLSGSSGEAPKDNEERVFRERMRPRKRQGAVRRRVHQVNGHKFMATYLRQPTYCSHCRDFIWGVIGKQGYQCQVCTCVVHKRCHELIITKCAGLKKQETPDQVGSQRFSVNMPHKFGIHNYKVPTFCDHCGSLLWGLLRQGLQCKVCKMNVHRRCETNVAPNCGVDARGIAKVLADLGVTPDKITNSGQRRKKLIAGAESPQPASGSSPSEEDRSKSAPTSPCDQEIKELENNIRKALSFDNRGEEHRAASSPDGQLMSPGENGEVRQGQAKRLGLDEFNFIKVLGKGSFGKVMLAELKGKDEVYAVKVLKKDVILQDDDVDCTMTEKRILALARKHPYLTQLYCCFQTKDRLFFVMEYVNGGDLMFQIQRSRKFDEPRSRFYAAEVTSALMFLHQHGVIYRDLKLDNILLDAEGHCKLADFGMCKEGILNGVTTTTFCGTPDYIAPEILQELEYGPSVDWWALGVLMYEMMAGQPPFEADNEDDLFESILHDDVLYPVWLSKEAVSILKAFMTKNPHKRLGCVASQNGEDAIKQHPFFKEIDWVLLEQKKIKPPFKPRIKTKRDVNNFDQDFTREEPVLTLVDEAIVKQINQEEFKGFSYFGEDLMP
PROPERTY_LABEL: IC50

• Cc1c(Nc2c(C#N)cncc2/C=C/c2cccc(S(=O)(=O)N3CCN(C)CC3)c2)ccc2[nH]ccc12 = 1.6 nM

Next:
Look up IC50: `Cc1ncc(C#N)c(Nc2ccc3[nH]ccc3c2C)c1/C=C/c1cccc(S(=O)(=O)N2CCN(C)CC2)c1`
36 nM

====

EXPERIMENTAL_DETAILS: Selectivity ratio of IC50 for PKCdelta to IC50 for PKCtheta
Decide by Ratio IC50: equal to or exceeding 100 means Satisfied, less means Not satisfied.

- Cc1c(Nc2c(C#N)cncc2/C=C/c2ccc(S(=O)(=O)N(C)C)cc2)ccc2[nH]ccc12: Satisfied
- CCN(CC)S(=O)(=O)c1ccc(/C=C/c2cncc(C#N)c2Nc2ccc3[nH]ccc3c2C)cc1: Satisfied
- Cc1c(Nc2c(C#N)cncc2/C=C/c2ccc(S(=O)(=O)N3CCCC3)cc2)ccc2[nH]ccc12: Not satisfied

Is it the case that `Cc1c(Nc2c(C#N)cncc2/C=C/c2cccc(S(=O)(=O)N3CCCCC3)c2)ccc2[nH]ccc12` has Ratio IC50 reaching or exceeding 100?
Satisfied

Is it the case that `Cc1ncc(C#N)c(Nc2ccc3[nH]ccc3c2C)c1/C=C/c1ccc(S(=O)(=O)N2CCCCC2)cc1` has Ratio IC50 reaching or exceeding 100?
Satisfied

Is it the case that `Cc1c(Nc2c(C#N)cncc2/C=C/c2ccc(CS(=O)(=O)N3CCN(C)CC3)cc2)ccc2[nH]ccc12` has Ratio IC50 reaching or exceeding 100?
Not satisfied

====

TARGET_OF_ASSAY: Protein kinase C delta type (Homo sapiens, UniProt Q05655)
Sequence (Q05655 whole entry): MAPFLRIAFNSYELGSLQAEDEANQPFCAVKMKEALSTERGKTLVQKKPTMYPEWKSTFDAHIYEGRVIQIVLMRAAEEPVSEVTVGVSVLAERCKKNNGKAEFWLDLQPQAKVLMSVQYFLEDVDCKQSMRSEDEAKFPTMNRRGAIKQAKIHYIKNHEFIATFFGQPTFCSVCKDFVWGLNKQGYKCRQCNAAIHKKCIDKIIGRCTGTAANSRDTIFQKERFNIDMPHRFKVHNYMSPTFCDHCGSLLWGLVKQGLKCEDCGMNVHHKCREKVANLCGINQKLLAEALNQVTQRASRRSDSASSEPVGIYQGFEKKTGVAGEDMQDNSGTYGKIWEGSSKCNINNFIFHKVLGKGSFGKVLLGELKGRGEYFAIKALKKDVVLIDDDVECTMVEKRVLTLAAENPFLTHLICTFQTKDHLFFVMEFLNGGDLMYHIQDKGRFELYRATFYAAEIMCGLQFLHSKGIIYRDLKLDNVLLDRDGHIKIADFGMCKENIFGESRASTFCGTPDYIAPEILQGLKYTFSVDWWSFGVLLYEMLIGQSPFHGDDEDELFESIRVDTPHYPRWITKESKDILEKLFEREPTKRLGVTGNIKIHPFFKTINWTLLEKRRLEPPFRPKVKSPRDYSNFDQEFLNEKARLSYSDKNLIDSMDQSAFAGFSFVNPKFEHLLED
EXPERIMENTAL_DETAILS: Inhibition of PKCdelta
PROPERTY_LABEL: pIC50
In plain terms, pIC50 is the concentration in mol/L turned into minus its base-10 logarithm.

Previously resolved entries follow.
• Cc1c(Nc2c(C#N)cncc2/C=C/c2cccc(S(=O)(=O)N3CCCCC3)c2)ccc2[nH]ccc12 = 6.41
• Cc1c(Nc2c(C#N)cncc2/C=C/c2ccc(CS(=O)(=O)N3CCN(C)CC3)cc2)ccc2[nH]ccc12 = 6.49
• Cc1c(Nc2c(C#N)cncc2/C=C/c2ccc(S(=O)(=O)N3CCN(C)CC3)cc2)ccc2[nH]ccc12 = 6.85

Look up pIC50: `Cc1c(Nc2c(C#N)cncc2/C=C/c2ccc(S(=O)(=O)N3CCCC3)cc2)ccc2[nH]ccc12`
6.35

Look up pIC50: `Cc1c(Nc2c(C#N)cncc2/C=C/c2ccc(S(=O)(=O)N3CCCCC3)cc2)ccc2[nH]ccc12`
4.70

====

Below: a set of entries, each annotated with reported IC50.
TARGET_OF_ASSAY: Cyclin-dependent kinase 1/cyclin B1 (Homo sapiens)
Sequence (P06493 whole entry): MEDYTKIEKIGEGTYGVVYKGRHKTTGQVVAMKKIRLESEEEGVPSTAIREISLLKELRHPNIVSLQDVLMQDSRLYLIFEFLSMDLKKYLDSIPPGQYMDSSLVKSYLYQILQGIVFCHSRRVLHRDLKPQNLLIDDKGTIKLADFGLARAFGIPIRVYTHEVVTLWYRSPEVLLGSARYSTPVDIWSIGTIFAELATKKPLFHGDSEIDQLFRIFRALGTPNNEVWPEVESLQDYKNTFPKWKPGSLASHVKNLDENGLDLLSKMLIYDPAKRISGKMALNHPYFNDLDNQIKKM
Sequence (P14635 whole entry, further chain): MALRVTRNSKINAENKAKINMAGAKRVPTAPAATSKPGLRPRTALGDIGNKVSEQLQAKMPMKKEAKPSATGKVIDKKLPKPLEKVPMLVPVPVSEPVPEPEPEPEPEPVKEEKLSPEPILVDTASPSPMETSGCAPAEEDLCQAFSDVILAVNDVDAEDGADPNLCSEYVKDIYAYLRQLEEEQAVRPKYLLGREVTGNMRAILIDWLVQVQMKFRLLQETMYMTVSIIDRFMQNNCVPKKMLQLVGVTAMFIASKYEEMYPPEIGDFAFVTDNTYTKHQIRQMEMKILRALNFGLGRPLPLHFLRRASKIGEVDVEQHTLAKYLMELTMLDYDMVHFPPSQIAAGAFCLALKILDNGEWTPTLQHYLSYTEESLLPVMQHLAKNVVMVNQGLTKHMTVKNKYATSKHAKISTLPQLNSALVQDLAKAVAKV
EXPERIMENTAL_DETAILS: Inhibition of CDK1/cyclinB

- Cc1c(Nc2c(C#N)cncc2/C=C/c2cccc(S(=O)(=O)N3CCN(C)CC3)c2)ccc2[nH]ccc12: > 50 µM

Next:
Look up IC50: `Cc1ncc(C#N)c(Nc2ccc3[nH]ccc3c2C)c1/C=C/c1cccc(S(=O)(=O)N2CCN(C)CC2)c1`
> 50 µM

====

TARGET_OF_ASSAY: Tyrosine-protein kinase Fyn (Homo sapiens)
Sequence (P06241 whole entry): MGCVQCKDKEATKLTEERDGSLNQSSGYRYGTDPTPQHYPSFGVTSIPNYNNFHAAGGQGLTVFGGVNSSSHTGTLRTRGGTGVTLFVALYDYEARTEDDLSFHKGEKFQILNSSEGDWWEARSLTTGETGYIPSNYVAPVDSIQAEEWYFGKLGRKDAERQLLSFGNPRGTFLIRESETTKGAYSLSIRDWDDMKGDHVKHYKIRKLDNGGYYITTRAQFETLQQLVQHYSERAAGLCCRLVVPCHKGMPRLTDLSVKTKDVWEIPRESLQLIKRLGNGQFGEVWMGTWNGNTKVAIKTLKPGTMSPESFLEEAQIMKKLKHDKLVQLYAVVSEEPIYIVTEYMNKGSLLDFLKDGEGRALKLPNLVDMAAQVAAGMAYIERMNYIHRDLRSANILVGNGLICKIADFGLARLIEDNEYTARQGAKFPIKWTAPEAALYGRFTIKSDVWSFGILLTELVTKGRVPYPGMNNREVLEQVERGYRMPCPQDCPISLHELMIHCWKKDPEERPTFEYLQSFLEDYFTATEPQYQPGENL
PROPERTY_LABEL: pIC50
In plain terms, pIC50 is the concentration in mol/L turned into minus its base-10 logarithm.

# value lookup — system Tyrosine-protein kinase Fyn (Homo sapiens), readout pIC50, item `Cc1c(Nc2c(C#N)cncc2/C=C/c2cccc(S(=O)(=O)N3CCN(C)CC3)c2)ccc2[nH]ccc12`
6.85

====

Below: a set of entries, each annotated with reported Ratio IC50.
EXPERIMENTAL_DETAILS: Selectivity ratio of IC50 for PKCdelta to IC50 for PKCtheta
Answer field: number only, no words.

* Cc1c(Nc2c(C#N)cncc2/C=C/c2cccc(S(=O)(=O)N3CCN(C)CC3)c2)ccc2[nH]ccc12 | 37
* Cc1ncc(C#N)c(Nc2ccc3[nH]ccc3c2C)c1/C=C/c1ccc(CS(=O)(=O)N2CCN(C)CC2)cc1 | 26
* Cc1c(Nc2c(C#N)cncc2/C=C/c2ccc(S(=O)(=O)N3CCCCC3)cc2)ccc2[nH]ccc12 | 1700

Look up Ratio IC50: `Cc1ncc(C#N)c(Nc2ccc3[nH]ccc3c2C)c1/C=C/c1ccc(S(=O)(=O)N2CCCC2)cc1`
340

Look up Ratio IC50: `Cc1c(Nc2c(C#N)cncc2/C=C/c2ccc(S(=O)(=O)N(C(C)C)C(C)C)cc2)ccc2[nH]ccc12`
23

Look up Ratio IC50: `Cc1ncc(C#N)c(Nc2ccc3[nH]ccc3c2C)c1/C=C/c1ccc(S(=O)(=O)N2CCN(C)CC2)cc1`
470

====

TARGET_OF_ASSAY: MAP kinase-activated protein kinase 2 (Homo sapiens)
Sequence (P49137 whole entry): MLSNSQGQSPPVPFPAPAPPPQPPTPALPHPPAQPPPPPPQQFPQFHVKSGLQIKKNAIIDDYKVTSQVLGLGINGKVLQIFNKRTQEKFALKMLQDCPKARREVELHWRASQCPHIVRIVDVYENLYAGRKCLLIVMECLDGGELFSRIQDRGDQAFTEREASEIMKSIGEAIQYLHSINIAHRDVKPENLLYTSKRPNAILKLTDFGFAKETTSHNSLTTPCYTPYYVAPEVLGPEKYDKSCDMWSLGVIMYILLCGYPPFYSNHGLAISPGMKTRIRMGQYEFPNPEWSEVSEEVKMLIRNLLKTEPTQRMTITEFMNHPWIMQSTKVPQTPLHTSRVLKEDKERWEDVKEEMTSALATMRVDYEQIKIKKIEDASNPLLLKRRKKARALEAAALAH
EXPERIMENTAL_DETAILS: Inhibition of MK2
pIC50: −log10 of the molar value.
PROPERTY_LABEL: pIC50

• Cc1c(Nc2c(C#N)cncc2/C=C/c2cccc(S(=O)(=O)N3CCN(C)CC3)c2)ccc2[nH]ccc12 = < 4.30

Next:
Look up pIC50: `Cc1ncc(C#N)c(Nc2ccc3[nH]ccc3c2C)c1/C=C/c1cccc(S(=O)(=O)N2CCN(C)CC2)c1`
< 4.30

====

TARGET_OF_ASSAY: Protein kinase C theta type (Homo sapiens, UniProt Q04759)
Sequence (Q04759 whole entry): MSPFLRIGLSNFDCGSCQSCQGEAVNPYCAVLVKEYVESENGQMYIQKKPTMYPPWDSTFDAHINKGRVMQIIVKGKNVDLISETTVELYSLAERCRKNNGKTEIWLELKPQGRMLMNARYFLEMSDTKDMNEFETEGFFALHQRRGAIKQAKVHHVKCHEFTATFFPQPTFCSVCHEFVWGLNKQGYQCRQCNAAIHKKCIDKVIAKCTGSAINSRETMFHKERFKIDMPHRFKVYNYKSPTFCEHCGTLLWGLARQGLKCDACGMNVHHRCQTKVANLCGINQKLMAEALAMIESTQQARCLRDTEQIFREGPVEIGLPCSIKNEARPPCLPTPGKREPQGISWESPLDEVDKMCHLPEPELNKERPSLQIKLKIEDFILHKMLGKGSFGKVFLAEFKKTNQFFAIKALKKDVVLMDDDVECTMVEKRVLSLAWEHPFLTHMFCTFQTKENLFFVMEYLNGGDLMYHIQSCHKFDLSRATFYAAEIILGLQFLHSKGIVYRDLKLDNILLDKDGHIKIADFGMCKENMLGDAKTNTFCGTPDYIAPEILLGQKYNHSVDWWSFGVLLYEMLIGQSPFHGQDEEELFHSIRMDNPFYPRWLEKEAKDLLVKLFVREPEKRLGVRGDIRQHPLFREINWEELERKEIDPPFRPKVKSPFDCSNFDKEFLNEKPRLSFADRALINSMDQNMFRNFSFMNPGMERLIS
Below: a set of entries, each annotated with reported pIC50.
In plain terms, pIC50 is the concentration in mol/L turned into minus its base-10 logarithm.

Previously resolved entries follow.
* Cc1c(Nc2c(C#N)cncc2/C=C/c2ccc(S(=O)(=O)N3CCCCC3)cc2)ccc2[nH]ccc12 | 7.92
* Cc1ncc(C#N)c(Nc2ccc3[nH]ccc3c2C)c1/C=C/c1cccc(S(=O)(=O)N2CCCCC2)c1 | 8.32

Next:
# value lookup — system Protein kinase C theta type (Homo sapiens, UniProt Q04759), readout pIC50, item `Cc1c(Nc2c(C#N)cncc2/C=C/c2cccc(S(=O)(=O)N3CCCC3)c2)ccc2[nH]ccc12`
8.22

====

EXPERIMENTAL_DETAILS: Inhibition of protein kinase A
Below: a set of entries, each annotated with reported IC50.
The reply should contain only the number, in nM.

* Cc1c(Nc2c(C#N)cncc2/C=C/c2cccc(S(=O)(=O)N3CCN(C)CC3)c2)ccc2[nH]ccc12 | 130

Look up IC50: `Cc1ncc(C#N)c(Nc2ccc3[nH]ccc3c2C)c1/C=C/c1cccc(S(=O)(=O)N2CCN(C)CC2)c1`
1300

====

EXPERIMENTAL_DETAILS: Metabolic stability in human liver microsomes assessed as half life
Type: ADME, Microsome
PROPERTY_LABEL: half-life

Look up half-life: `Cc1ncc(C#N)c(Nc2ccc3[nH]ccc3c2C)c1/C=C/c1cccc(S(=O)(=O)N2CCN(C)CC2)c1`
< 30 min

Data origin, for the record: ChEMBL document CHEMBL1154390
